Ratio IC50 overview
System: Trypanosoma cruzi
Test: Ratio of banznidazole IC50 to compound IC50 for Trypanosoma cruzi Tulahuen C4 amastigotes
Type: functional

Ask: Please report the recorded Ratio IC50 for `Cl.Cl.O=[N+]([O-])c1ncn(CCCCN2CCN(Cc3ccc(C(F)(F)F)cc3)CC2)n1` .
Result: 3.8

Ask: Param item = `O=[N+]([O-])c1ncn(CCCCNc2nc3ccc(Cl)cc3s2)n1` ; retrieve measured Ratio IC50.
Result: 14.4

Ask: Requested field: Ratio IC50. Item: `Cl.Cl.N#Cc1ccccc1N1CCN(CCCn2cnc([N+](=O)[O-])n2)CC1`
Result: 2.5

Ask: Look up Ratio IC50: `Cl.Cl.Cl.Cl.O=[N+]([O-])c1nccn1CCCN1CCN(Cc2ccc(Cl)c(Cl)c2)CC1`
Result: 0.2

----------
Test system: Leishmania donovani
Test: Antimicrobial activity against Leishmania donovani MHOM-ET-67/L82 amastigotes after 72 hrs by Alamar blue assay
Format: functional, organism-based
Details: MHOM-ET-67/L82, 72 h
So basically: is IC50 under 20 µM? Then criterion met. Not under? Then criterion not met.

Sample answers from the record:
O=[N+]([O-])c1nccn1CCCCNc1nc2ccc(Cl)cc2s1    criterion met
Cl.Cl.Cl.Cl.O=[N+]([O-])c1ncn(CCCN2CCN(c3ccc(Cl)c(Cl)c3)CC2)n1    criterion met
Cc1ccc(N2CCN(CCCn3cnc([N+](=O)[O-])n3)CC2)cc1.Cl.Cl    criterion not met
Cl.Cl.O=[N+]([O-])c1ncn(CCCN2CCN(c3ncccn3)CC2)n1    criterion not met
Cl.Cl.O=[N+]([O-])c1ncn(CCCN2CCN(c3ccccn3)CC2)n1    criterion not met

Now for another entry.
Ask: Please let me know if `Cl.Cl.Cl.Cl.O=[N+]([O-])c1nccn1CCCN1CCN(Cc2ccc(Cl)c(Cl)c2)CC1` shows IC50 below 20 µM.
Result: criterion not met

----------
In this section, each of the compounds is paired with its reported selectivity ratio.
Assay: Selectivity index, ratio of IC50 for rat L6 cells to IC50 for Leishmania donovani MHOM-ET-67/L82 amastigotes
Format: toxicity, cell-based
Conditions: read-out: Ratio IC50
Answer as a number with no unit attached.

Here are 2 compounds together with their reported answers.
Cl.Cl.O=[N+]([O-])c1ncn(CCCN2CCN(c3ncccn3)CC2)n1    1
O=[N+]([O-])c1nccn1CCCNc1nc2ccccc2s1    15.4

Let us examine a further case.
Ask: What does the record list as selectivity ratio for `O=[N+]([O-])c1ncn(CCCNc2nc3ccc(Cl)cc3s2)n1` ?
Result: 22.7

----------
Assay: Selectivity index, ratio of IC50 for rat L6 cells to IC50 for blood stream form of Trypanosoma brucei rhodesiense STIB 900
Type: toxicity, cell-based
Conditions: read-out: Ratio IC50
Endpoint label: selectivity ratio
Lab note: jot down the number only; don't add units.

Here are 5 compounds together with their reported answers.
COc1ccc(N2CCN(CCCn3ccnc3[N+](=O)[O-])CC2)cc1.Cl.Cl    2.2
O=[N+]([O-])c1nccn1CCCNc1nc2ccccc2s1    3.4
O=[N+]([O-])c1ncn(CCCCNc2nc3ccc(Cl)cc3s2)n1    126
O=[N+]([O-])c1ncn(CCCNc2nc3ccccc3s2)n1    170
Cl.Cl.O=[N+]([O-])c1ncn(CCCN2CCN(c3ccccn3)CC2)n1    4.3

Ask: selectivity ratio lookup needed for `O=[N+]([O-])c1ncn(CCCN2CCN(c3ccncc3)CC2)n1` , thanks.
Result: 115

Ask: Which selectivity ratio is reported for this compound? `O=[N+]([O-])c1ncn(CCCNc2nc3ccc(Cl)cc3s2)n1`
Result: 500

Ask: Value lookup for selectivity ratio; key = `O=[N+]([O-])c1nccn1CCCNc1nc2ccc(Cl)cc2s1`
Result: 6.5

Ask: Sample `Cc1ccc(N2CCN(CCCn3cnc([N+](=O)[O-])n3)CC2)cc1.Cl.Cl` — what was its selectivity ratio?
Result: 5.1

Ask: # input compound: `Cl.Cl.Cl.Cl.O=[N+]([O-])c1ncn(CCCN2CCN(c3ccc(Cl)c(Cl)c3)CC2)n1` ; wanted: its selectivity ratio
Result: 180

Ask: If you can, please state the reported selectivity ratio value of `O=[N+]([O-])c1nccn1CCCCNc1nc2ccc(Cl)cc2s1` .
Result: 11.1

Ask: Which selectivity ratio reading was recorded for the compound `Cl.Cl.N#Cc1ccccc1N1CCN(CCCn2cnc([N+](=O)[O-])n2)CC1` ?
Result: 10.8
